Test: Molar enthalpy of transition or fusion
Details: Crystal; DSC
recorded-metric: Molar enthalpy of transition or fusion (kcal/mol)
Supply the numeric figure in kcal/mol, leaving out any unit text.

Some compounds with recorded Molar enthalpy of transition or fusion:
>>> reported_measurement("FC(F)(F)C(F)(F)C(F)(F)C(F)(F)C(F)(F)C(F)(F)C(F)(F)C(F)(F)C(F)(F)C(F)(F)C(F)(F)C(F)(F)C(F)(F)C(F)(F)C(F)(F)C(F)(F)C(F)(F)C(F)(F)C(F)(F)C(F)(F)C(F)(F)C(F)(F)C(F)(F)C(F)(F)F [perfluorotetracosane]")
15.1
>>> reported_measurement("FC(F)(F)C(F)(F)C(F)(F)C(F)(F)C(F)(F)C(F)(F)C(F)(F)C(F)(F)C(F)(F)C(F)(F)C(F)(F)C(F)(F)C(F)(F)C(F)(F)F [triacontafluorotetradecane]")
7.53
>>> reported_measurement("FC(F)(F)C(F)(F)C(F)(F)C(F)(F)C(F)(F)C(F)(F)C(F)(F)C(F)(F)C(F)(F)C(F)(F)C(F)(F)C(F)(F)F [hexacosafluorododecane]")
5.78
>>> reported_measurement("Fc1c(F)c(F)c(-c2c(F)c(F)c(F)c(F)c2F)c(F)c1F [perfluorobiphenyl]")
4.9
>>> reported_measurement("FC(F)(F)C(F)(F)C(F)(F)C(F)(F)C(F)(F)C(F)(F)C(F)(F)C(F)(F)C(F)(F)C(F)(F)C(F)(F)C(F)(F)C(F)(F)C(F)(F)C(F)(F)C(F)(F)F [tetratriacontafluorohexadecane]")
9.25
>>> reported_measurement("FC(F)(F)C(F)(F)C(F)(F)C(F)(F)C(F)(F)C(F)(F)C(F)(F)C(F)(F)C(F)(F)C(F)(F)C(F)(F)C(F)(F)C(F)(F)C(F)(F)C(F)(F)F [perfluoropentadecane]")
8.39

Provide only the value of recorded Molar enthalpy of transition or fusion for FC(F)(F)C(F)(F)C(F)(F)C(F)(F)C(F)(F)C(F)(F)C(F)(F)C(F)(F)C(F)(F)C(F)(F)C(F)(F)C(F)(F)C(F)(F)F [perfluorotridecane]
6.67

Provide only the value of recorded Molar enthalpy of transition or fusion for FC(F)(F)C(F)(F)C(F)(F)C(F)(F)C(F)(F)C(F)(F)C(F)(F)C(F)(F)C(F)(F)C(F)(F)C(F)(F)C(F)(F)C(F)(F)C(F)(F)C(F)(F)C(F)(F)C(F)(F)C(F)(F)C(F)(F)C(F)(F)F [dotetracontafluoroeicosane]
12

---

Details: Crystal; DTA
recorded-metric: Normal melting temperature (°C)
Supply the numeric figure in °C, leaving out any unit text.

Some compounds with recorded Normal melting temperature:
>>> reported_measurement("FC(F)(F)C(F)(F)C(F)(F)C(F)(F)C(F)(F)C(F)(F)C(F)(F)C(F)(F)C(F)(F)C(F)(F)C(F)(F)C(F)(F)C(F)(F)C(F)(F)C(F)(F)C(F)(F)C(F)(F)C(F)(F)C(F)(F)C(F)(F)C(F)(F)C(F)(F)C(F)(F)C(F)(F)F")
188.0
>>> reported_measurement("FC(F)(F)C(F)(F)C(F)(F)C(F)(F)C(F)(F)C(F)(F)C(F)(F)C(F)(F)C(F)(F)C(F)(F)C(F)(F)C(F)(F)C(F)(F)C(F)(F)C(F)(F)C(F)(F)C(F)(F)C(F)(F)C(F)(F)C(F)(F)F")
163.1
>>> reported_measurement("FC(F)(F)C(F)(F)C(F)(F)C(F)(F)C(F)(F)C(F)(F)C(F)(F)C(F)(F)C(F)(F)C(F)(F)C(F)(F)C(F)(F)F")
73.5

Provide only the value of recorded Normal melting temperature for Fc1c(F)c(F)c(-c2c(F)c(F)c(F)c(F)c2F)c(F)c1F
66.5

Provide only the value of recorded Normal melting temperature for FC(F)(F)C(F)(F)C(F)(F)C(F)(F)C(F)(F)C(F)(F)C(F)(F)C(F)(F)C(F)(F)C(F)(F)C(F)(F)C(F)(F)C(F)(F)C(F)(F)F
102.5

Provide only the value of recorded Normal melting temperature for FC(F)(F)C(F)(F)C(F)(F)C(F)(F)C(F)(F)C(F)(F)C(F)(F)C(F)(F)C(F)(F)C(F)(F)C(F)(F)C(F)(F)C(F)(F)C(F)(F)C(F)(F)C(F)(F)F
126.6

Provide only the value of recorded Normal melting temperature for FC(F)(F)C(F)(F)C(F)(F)C(F)(F)C(F)(F)C(F)(F)C(F)(F)C(F)(F)C(F)(F)C(F)(F)C(F)(F)C(F)(F)C(F)(F)C(F)(F)C(F)(F)F
115.0

Provide only the value of recorded Normal melting temperature for FC(F)(F)C(F)(F)C(F)(F)C(F)(F)C(F)(F)C(F)(F)C(F)(F)C(F)(F)C(F)(F)C(F)(F)C(F)(F)C(F)(F)C(F)(F)F
88.6
